All values here come from the kinase profiling compilation of Christmann-Franck et al. (2016).

# TARGET ENTITY: PAK1 (human)
# PROTOCOL TEXT: radiometric filter-binding kinase assay, Kinase HotSpot
# TEST PARAMETERS: compound 0.5 µM; ATP 10 µM
Rule: yes for residual activity not less than 90%, no for anything less.

Would you say "Cc1cncc2cccc(S(=O)(=O)N3CCCN(C(=O)CN)C[C@H]3C)c12" shows residual activity at minimum 90%?
yes

Tell me whether residual activity is at least 90% here: "Ic1cccc(CSc2nnc(-c3ccncc3)o2)c1"
yes

Can "COc1ccc2c(c1)/C(=C/c1cnc[nH]1)C(O)=N2" be said to have residual activity at or above 90%?
yes

Could you verify whether the entry "Cn1c2ccccc2c2c3c(c4c5ccccc5n(CCC#N)c4c21)CNC3=O" shows residual activity of no less than 90%?
no

Decide: residual activity of "C[C@@H]1CCN(C(=O)CC#N)C[C@@H]1N(C)c1ncnc2[nH]ccc12" >= 90%?
yes

Item "COc1cc2ncnc(Nc3ccc(OCc4ccccc4)cc3)c2cc1OC" with residual activity of 90% or above?
yes

Determine whether this molecule has residual activity no lower than 90%: "COc1ccc(Cl)cc1NC(=O)Nc1cc(C)nc2ccccc12"
yes

I'd appreciate it if you could say whether "COc1cc(Nc2c(C#N)cnc3cc(OCCCN4CCN(C)CC4)c(OC)cc23)c(Cl)cc1Cl" has residual activity at least equal to 90%.
no

Is it the case that "N#Cc1c[nH]c2c[nH]/c(=N\Cc3cccnc3)cc2/c1=N\c1ccc(F)c(Cl)c1" has residual activity reaching or exceeding 90%?
yes

Please check the record "Fc1ccc(-c2nc3n(c2-c2ccncc2)CCS3)cc1" and state if its residual activity is at or above 90%.
yes

Threshold query (residual activity >= 90%) on "CN(C)S(=O)(=O)c1ccc2c(c1)/C(=C/c1cc3c([nH]1)CCCC3)C(=O)N2"
yes

Reported residual activity at or above 90%? "O=C1c2ccccc2-c2nc3nnnn3nc21"
yes

Is residual activity for "CO[C@@H]1[C@H](N(C)C(=O)c2ccccc2)C[C@H]2O[C@]1(C)n1c3ccccc3c3c4c(c5c6ccccc6n2c5c31)C(=O)NC4" at or above 90%?
no

residual activity >= 90% for "c1ccc2c(-c3ccncc3)c[nH]c2c1" ?
yes

Could you tell me if the measured residual activity of "CS(=O)(=O)CCNCc1ccc(-c2ccc3ncnc(Nc4ccc(OCc5cccc(F)c5)c(Cl)c4)c3c2)o1" reaches 90% or more?
yes

Dear colleague, could you confirm whether "O=C1Nc2ccc(Br)cc2/C1=C\c1cc2c([nH]1)CCCC2" has residual activity at or above 90%?
yes

hey, is residual activity for this one >= 90%? "Cc1nc(-c2ccccc2)c(-c2ccncc2)o1"
yes

Say whether "COc1cc2ncnc(Nc3ccc(Oc4ccccc4)cc3)c2cc1OC" shows residual activity of 90% or more.
yes

###

# TARGET ENTITY: MAP3K11 (human) (UniProt Q16584)
# Sequence (Q16584 whole entry, looked up): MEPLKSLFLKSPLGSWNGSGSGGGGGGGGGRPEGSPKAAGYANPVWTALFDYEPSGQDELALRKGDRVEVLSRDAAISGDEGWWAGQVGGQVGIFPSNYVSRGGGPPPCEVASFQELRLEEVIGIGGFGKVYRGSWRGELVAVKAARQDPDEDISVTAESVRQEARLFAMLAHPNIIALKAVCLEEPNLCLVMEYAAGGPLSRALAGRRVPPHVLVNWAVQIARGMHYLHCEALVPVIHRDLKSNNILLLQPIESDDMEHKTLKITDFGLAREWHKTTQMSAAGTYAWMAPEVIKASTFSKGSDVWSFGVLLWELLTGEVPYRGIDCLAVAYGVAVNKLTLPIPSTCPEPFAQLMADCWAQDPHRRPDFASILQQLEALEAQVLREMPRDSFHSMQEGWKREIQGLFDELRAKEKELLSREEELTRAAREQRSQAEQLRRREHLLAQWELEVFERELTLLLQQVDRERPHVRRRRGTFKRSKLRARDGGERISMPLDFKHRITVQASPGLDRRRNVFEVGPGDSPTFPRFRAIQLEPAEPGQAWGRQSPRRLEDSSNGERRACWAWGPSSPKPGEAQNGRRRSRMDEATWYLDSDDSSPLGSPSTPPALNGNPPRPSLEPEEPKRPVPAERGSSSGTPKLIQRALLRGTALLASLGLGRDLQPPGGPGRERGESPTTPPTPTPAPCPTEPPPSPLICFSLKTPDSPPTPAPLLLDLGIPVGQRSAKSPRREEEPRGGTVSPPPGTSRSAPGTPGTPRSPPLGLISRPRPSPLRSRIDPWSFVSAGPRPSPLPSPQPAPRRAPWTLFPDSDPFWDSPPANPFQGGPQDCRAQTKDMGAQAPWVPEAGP
# PROTOCOL TEXT: radiometric filter-binding kinase assay, Kinase HotSpot
# TEST PARAMETERS: compound 0.5 µM; ATP 10 µM
QUANTITY NAME: residual activity (%)
Answer in %, number only, no unit symbol.

So, "COc1ccc2c(c1)/C(=C/c1cnc[nH]1)C(O)=N2" ? Its residual activity was 61.6

"COc1cc2ncnc(Nc3ccc(OCc4ccccc4)cc3)c2cc1OC" has a reported residual activity of 92.2

The compound "COc1ccc(S(=O)(=O)N(CCO)c2ccccc2CN(C)C/C=C/c2ccc(Cl)cc2)cc1" showed residual activity equal to 99.3

The compound "CN(C)c1ccc(/C=C2\C(=O)Nc3ccccc32)cc1" showed residual activity equal to 88.4

residual activity recorded for this compound, "O=C1c2ccccc2-c2nc3nnnn3nc21" , is 69

The compound listed as "Cn1c2ccccc2c2c3c(c4c5ccccc5n(CCC#N)c4c21)CNC3=O" shows residual activity equal to 2.19

Summary for this compound, "COc1cc(Nc2c(C#N)cnc3cc(OCCCN4CCN(C)CC4)c(OC)cc23)c(Cl)cc1Cl" : residual activity is 13.5

The measured residual activity associated with "c1ccc2c(-c3ccncc3)c[nH]c2c1" reads 95.2

The measured residual activity associated with "CO[C@@H]1[C@H](N(C)C(=O)c2ccccc2)C[C@H]2O[C@]1(C)n1c3ccccc3c3c4c(c5c6ccccc6n2c5c31)C(=O)NC4" reads 1.38

compound "Cc1cccc(-c2nc(C(C)(C)C)[nH]c2-c2ccc3c(c2)OCO3)n1" , residual activity observed: 96.2
